# System: EKVX NSCLC
# experiment_description: NCI-60 one-dose screen, 48 h (100 = growth as untreated, 0 = no growth, -100 = all killed)
# condition_description: 10 µM unless noted
About 83,000 compounds went through this panel and 20% of them were active in at least one assay; those are over-represented in the sample as a whole.
growth strictly under 80% means Satisfied; at 80% or over means Not satisfied.

INSERT INTO measurements (smi, answer_label) VALUES
  ('CCOC(=O)c1c(NC(=O)c2cccc(C(F)(F)F)c2)sc2c3c(ccc12)OCN(C)C3', 'Satisfied'),
  ('CCN(CC)c1ccc(/C=N/NC(=O)c2ccc(NS(C)(=O)=O)cc2)cc1', 'Satisfied'),
  ('Brc1cccc(-c2cc(-c3ccc4c(c3)OC=CO4)[nH]n2)c1', 'Satisfied'),
  ('Cc1csc(/N=C(N)/N=C(\N)c2cccc(Br)c2)n1', 'Not satisfied');

Data origin, for the record: PubChem BioAssay (NCI)
